Biological target: hα7-wt nAChR (Homo sapiens, UniProt P36544)
Construct: expressed in transfected cells
Sequence (P36544 23-502): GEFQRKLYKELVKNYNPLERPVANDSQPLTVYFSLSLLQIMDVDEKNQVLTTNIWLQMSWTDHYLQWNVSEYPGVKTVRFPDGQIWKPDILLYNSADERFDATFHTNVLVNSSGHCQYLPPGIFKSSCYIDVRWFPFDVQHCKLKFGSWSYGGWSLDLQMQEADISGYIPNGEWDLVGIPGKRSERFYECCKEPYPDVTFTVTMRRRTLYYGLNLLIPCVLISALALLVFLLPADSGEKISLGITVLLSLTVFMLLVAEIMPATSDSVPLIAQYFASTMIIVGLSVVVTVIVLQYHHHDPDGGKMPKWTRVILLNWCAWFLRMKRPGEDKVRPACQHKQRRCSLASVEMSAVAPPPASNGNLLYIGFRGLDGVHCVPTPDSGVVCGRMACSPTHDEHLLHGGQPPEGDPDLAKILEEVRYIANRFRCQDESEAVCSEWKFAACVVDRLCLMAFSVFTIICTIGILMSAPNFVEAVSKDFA
Assay: Ca2+ flux imaging (FDSS) (Protocol B), PAM activity with choline as agonist
Assay type: cell-based
Conditions: "<5" = no top plateau at maximal concentration
TEST READOUT: EC50 (nM)

Example cases with answers are listed next.
INSERT INTO measurements (compound, recorded_number) VALUES
  ('CCNC(=O)Cn1nc(Nc2ccc(F)c(C(F)(F)F)c2)nc1-c1ccncc1C [Compound 118]', 794),
  ('O=C(CCn1nc(Nc2cccc(C(F)(F)F)c2)nc1-c1ccncc1)N1CCOCC1 [Compound 86]', 1260),
  ('C/C(N)=N/OC(=O)CCn1nc(Nc2ccc(F)c(C(F)(F)F)c2)nc1-c1ccncc1 [Compound 53]', 5010);

1: C[C@H](O)Cn1nc(Nc2ccc(F)c(C(F)(F)F)c2)nc1-c1ccnc(NCC2CC2)c1 [Compound 104]
2: Cc1cc(-c2nc(Nc3ccc(F)c(C)c3)nn2CCC(=O)N(C)C)ccn1 [Compound 184]
3: NC(=O)CCn1nc(Nc2cccc(C(F)(F)F)c2)nc1-c1ccc2c(c1)OCCO2 [Compound 10]
4: Cc1ccc(-c2nc(Nc3ccc(F)c(C(F)(F)F)c3)nn2CCC(=O)N(C)C)cn1 [Compound 127]
Ascending by EC50, please: list the compounds accordingly. Answer by naming the labels in the order asked.
4, 2, 3, 1
(4: 200 nM, 2: 794 nM, 3: 2000 nM, 1: 3160 nM)

1: CC(C)c1ccc(-c2nc(Nc3cccc(C(F)(F)F)c3)nn2CCO)cn1 [Compound 71]
2: CNC(=O)Cn1nc(Nc2ccc(F)c(C(F)(F)F)c2)nc1-c1ccc(C)nc1 [Compound 108]
Of 1 and 2 , whose reported EC50 is numerically smaller? Label of pick, please.
1
(1: 794 nM, 2: 2510 nM)

I: COc1cc(-c2nc(Nc3cccc(C(F)(F)F)c3)nn2CCO)ccn1 [Compound 73]
II: CC(C)(O)c1cc(-c2nc(Nc3ccc(F)c(C(F)(F)F)c3)nn2CC(=O)NC2CC2)ccn1 [Compound 122]
III: CNC(=O)Cn1nc(Nc2cccc(OC(F)(F)F)c2)nc1-c1ccc2c(c1)OCCN2C [Compound 157]
IV: Cc1cc(Nc2nc(-c3ccnc(Cl)c3)n(CCC(=O)N(C)C)n2)ccc1F [Compound 192]
V: CN(C)C(=O)CCn1nc(Nc2ccc(F)c(C(F)(F)F)c2)nc1-c1ccnc(CNC(=O)C(F)(F)F)c1 [Compound 59]
Ascending by EC50, please: list the compounds accordingly. Answer by naming the labels in the order asked.
V, III, IV, II, I

I: OCCn1nc(Nc2ccc(F)c(C(F)(F)F)c2)nc1-c1ccc(NC2CC2)nc1 [Compound 95]
II: CNC(=O)Cn1nc(Nc2ccnc(C(F)(F)F)c2)nc1-c1ccc2c(c1)OCCO2 [Compound 212]
Which has the higher EC50, I or II ? Label of pick, please.
I

I: Cc1nc(CCn2nc(Nc3ccc(F)c(C(F)(F)F)c3)nc2-c2ccnc(Cl)c2)no1 [Compound 56]
II: Cc1cc(-c2nc(Nc3cccc(C(F)(F)F)c3)nn2CCC(=O)N(C)C)ccn1 [Compound 48]
Of I and II , whose reported EC50 is numerically smaller? Label of pick, please.
II

1: CN(C)C(=O)CCn1nc(Nc2cccc(C(F)(F)F)c2)nc1-c1ccncc1 [Compound 4]
2: CCNc1cnccc1-c1nc(Nc2cccc(OC(F)(F)F)c2)nn1CC(C)O (stereo not shown) [Compound 149]
3: OCCn1nc(Nc2cccc(C(F)(F)F)c2)nc1-c1ccncc1 [Compound 2]
4: Cc1cc(C(=O)NCCCn2nc(Nc3cccc(C(F)(F)F)c3)nc2-c2ccncc2)no1 [Compound 8]
Ascending by EC50, please: list the compounds accordingly. Answer by naming the labels in the order asked.
1, 2, 4, 3

a: COc1ccc(-c2nc(Nc3cccc(OC(F)(F)F)c3)nn2CC(=O)NC2CC2)cc1OC [Compound 163]
b: Cc1ncccc1-c1nc(Nc2ccc(F)c(C(F)(F)F)c2)nn1CCC(=O)N(C)C [Compound 126]
Which has the higher EC50, a or b ? Label of pick, please.
b

I: CCOc1ccc(-c2nc(Nc3ccc(F)c(C(F)(F)F)c3)nn2CCO)cn1 [Compound 91]
II: CC1(NC(=O)Cn2nc(Nc3cccc(OC(F)(F)F)c3)nc2-c2ccc3c(c2)OCCO3)CC1 [Compound 166]
Which has the higher EC50, I or II ? Label of pick, please.
I

----------
Target: hα7-wt nAChR (Homo sapiens, UniProt P36544)
Construct: expressed in transfected cells
Experiment: Ca2+ flux imaging (FDSS) (Protocol B), PAM activity with choline as agonist
Assay type: cell-based
Settings: "<5" = no top plateau at maximal concentration
TEST READOUT: EC50 (nM)

Example cases with answers are listed next.
INSERT INTO measurements (molecule, tested_system, test_readout, recorded_number) VALUES
  ('CNC(=O)Cn1nc(Nc2ccc(F)c(C(F)(F)F)c2)nc1-c1ccc(NC)nc1 [Compound 113]', 'hα7-wt nAChR (Homo sapiens, UniProt P36544)', 'EC50', 2000),
  ('CCNc1cc(-c2nc(Nc3cc(F)c(F)c(F)c3)nn2C[C@H](C)O)ccn1 [Compound 39]', 'hα7-wt nAChR (Homo sapiens, UniProt P36544)', 'EC50', 1000),
  ('COc1ccc(Nc2nc(-c3ccnc(C)c3)n(CCC(=O)N(C)C)n2)cc1C(F)(F)F [Compound 144]', 'hα7-wt nAChR (Homo sapiens, UniProt P36544)', 'EC50', 200),
  ('OCCn1nc(Nc2ccc(F)c(C(F)(F)F)c2)nc1-c1ccncc1 [Compound 87]', 'hα7-wt nAChR (Homo sapiens, UniProt P36544)', 'EC50', 2510),
  ('CNC(=O)Cn1nc(Nc2cccc(OC(F)(F)F)c2)nc1-c1ccncc1F [Compound 154]', 'hα7-wt nAChR (Homo sapiens, UniProt P36544)', 'EC50', 3160),
  ('CN(C)C(=O)CCn1nc(Nc2ccc(F)c(C(F)(F)F)c2)nc1-c1ccc(C2CC2)nc1 [Compound 132]', 'hα7-wt nAChR (Homo sapiens, UniProt P36544)', 'EC50', 15.8),
  ('Cc1cc(-c2nc(Nc3cccc(OC(F)(F)F)c3)nn2CC(=O)NC2CC2)ccn1 [Compound 164]', 'hα7-wt nAChR (Homo sapiens, UniProt P36544)', 'EC50', 2000),
  ('OCCn1nc(Nc2cccc(C(F)(F)F)c2)nc1-c1ccc(C2CC2)nc1 [Compound 76]', 'hα7-wt nAChR (Homo sapiens, UniProt P36544)', 'EC50', 501);

P: COc1cc(-c2nc(Nc3cccc(C(F)(F)F)c3)nn2CCC(=O)N(C)C)cc(C)n1 [Compound 83]
Q: CCc1cc(-c2nc(Nc3ccc(F)c(C(F)(F)F)c3)nn2CCO)ccn1 [Compound 88]
Which has the higher EC50, P or Q ? Label of pick, please.
Q

----------
Biological target: hα7-wt nAChR (Homo sapiens, UniProt P36544)
Construct: expressed in transfected cells
Experiment: Ca2+ flux imaging (FLIPR) (Protocol A), PAM activity with choline as agonist
Type: cell-based
Details: "<5" = no top plateau at maximal concentration
pEC50: −log10 of the molar value.
TEST READOUT: pEC50

Example cases with answers are listed next.
INSERT INTO results (smiles_entry, test_readout, result) VALUES
  ('CNC(=O)Cn1nc(Nc2cc(F)cc(F)c2)nc1-c1ccnc(NC)c1', 'pEC50', '< 5.00'),
  ('OCCn1nc(Nc2cccc(C(F)(F)F)c2)nc1-c1cnc2ccoc2c1', 'pEC50', '< 5.00');

Continue with the next compound.
The measured pEC50 associated with CCOC(=O)Cn1nc(Nc2cccc(C(F)(F)F)c2)nc1-c1ccc2c(c1)OCO2 reads < 5.00

----------
TEST READOUT: melting point (°C)

INSERT INTO results (smiles_entry, test_readout, recorded_number) VALUES
  ('COc1cc(Nc2nc(-c3ccnc(C)c3)n(CCC(=O)N(C)C)n2)cc(F)c1F', 'melting point', 199.8),
  ('COCc1cc(-c2nc(Nc3ccc(F)c(C(F)(F)F)c3)nn2CC(=O)NC2CC2)ccn1', 'melting point', 204.6),
  ('CN(C)C(=O)CCn1nc(Nc2cccc(OC(F)(F)F)c2)nc1-c1ccncc1', 'melting point', 178.4),
  ('Cc1cc(-c2nc(Nc3cccc(C(F)(F)F)c3)nn2CCC(=O)N(C)C)ccn1', 'melting point', 169.1),
  ('CN(C)C(=O)CCn1nc(Nc2ccc(F)c(C(F)(F)F)c2)nc1-c1ccnc(CNC(=O)C(F)(F)F)c1', 'melting point', 182.4),
  ('COc1ccc(Nc2nc(-c3ccncc3Cl)n(CCC(=O)N(C)C)n2)cc1C(F)(F)F', 'melting point', 211.2),
  ('CC(=O)c1cc(-c2nc(Nc3ccc(F)c(C(F)(F)F)c3)nn2CC(=O)NC2CC2)ccn1', 'melting point', 213.2),
  ('OCCn1nc(Nc2cccc(C(F)(F)F)c2)nc1-c1cnc2ccoc2c1', 'melting point', 158.8),
  ('OCCn1nc(Nc2cccc(C(F)(F)F)c2)nc1-c1cnc2ccccc2c1', 'melting point', 182),
  ('CCOC(=O)Cn1nc(Nc2cccc(C(F)(F)F)c2)nc1-c1ccc2c(c1)OCO2', 'melting point', 149.2),
  ('C[C@H](O)Cn1nc(Nc2ccc(F)c(C(F)(F)F)c2)nc1-c1ccnc(NCC2CC2)c1', 'melting point', 145.8),
  ('C[C@H](O)Cn1nc(Nc2ccc(F)c(F)c2)nc1-c1ccc(C(=O)N2CCCC2)nc1', 'melting point', 181.7),
  ('CCNC(=O)Cn1nc(Nc2cccc(OC(F)(F)F)c2)nc1-c1ccc2c(c1)OCCO2', 'melting point', 188.7),
  ('CNC(=O)Cn1nc(Nc2cccc(OC(F)(F)F)c2)nc1-c1ccc2c(c1)OCCN2C', 'melting point', 222.4),
  ('CCOC(=O)NCCn1nc(Nc2ccc(F)c(C(F)(F)F)c2)nc1-c1ccnc(C2CC2)c1', 'melting point', 147.2),
  ('O=C(CCn1nc(Nc2cccc(C(F)(F)F)c2)nc1-c1ccncc1)N1CCCC1', 'melting point', 182.2);
